test system: Plasmodium falciparum; test: GSK_TCMDC: Inhibition of Plasmodium falciparum 3D7 in whole erythrocytes, using parasite LDH activity as an index of growth.; format: functional, organism-based; conditions: Plasmodium falciparum, 3D7
# reported XC50; entries follow
Enter your answer as a number in nM; do not include the unit.

Solved entries (count: 3):
compound	unit-tag	readout-number
CCOc1ccc2c(=NN=Cc3cccc(Cl)c3)cc(C)[nH]c2c1	nM	864
CCOC(=O)C1CCN(CCCNC(=O)/C(=C/C=C/c2cc3cc(Cl)c(Cl)cc3[nH]2)OC)CC1	nM	1040
O=C(C=Cc1ccc(Cl)c(Cl)c1)NCCCCCN1CCC(CCNC(=O)C(c2ccccc2)c2ccccc2)CC1	nM	1010

Please fill in: XC50 reported for COc1ccc2nccc([C@@H](O)CN3CCC(NCCc4c[nH]c5ccccc45)CC3)c2c1 = 210

Please fill in: XC50 reported for CC(C)C(=O)NC(c1ccc(Cl)cc1)c1ccc2cccnc2c1O (stereo not given) = 873

====

system: Plasmodium falciparum; assay: GSK_TCMDC: Inhibition of Plasmodium falciparum 3D7 in whole erythrocytes, using parasite LDH activity as an index of growth.; assay type: functional, organism-based; settings: Plasmodium falciparum, 3D7
# reported XC50; entries follow
Enter your answer as a number in nM; do not include the unit.

Solved entries (count: 5):
compound	unit-tag	readout-number
O=C(Nc1cccc(CN2CCCN(CCc3ccccc3)CC2)c1)c1cc2ccccc2s1	nM	1130
Cc1cc(=NN=Cc2ccccc2F)c2cc(C(F)(F)F)ccc2[nH]1	nM	433
CC1(C)N=C(N)N=C(NOCCCCCCONC2=NC(N)=NC(C)(C)N2)N1	nM	33.3
C=CCc1cc(OC)ccc1OCCCOc1c(C)nc(N)nc1N	nM	3.2
CC(C)(C)c1ccc2nccc(Nc3cccc(O)c3)c2c1	nM	973

Tested system Plasmodium falciparum; XC50 recorded for c1ccc(Oc2ccc(Nc3ccnc(Nc4ccc(CN5CCOCC5)cc4)n3)cc2)cc1 was 941

Tested system Plasmodium falciparum; XC50 recorded for O=C1OC2(CN1CC1CCN(Cc3ccc(O)c(Cl)c3)CC1)c1ccccc1-c1ccccc12 was 756

Tested system Plasmodium falciparum; XC50 recorded for CC(C)(Oc1c(C2CCN(CCCCNC(=O)c3ccc(-c4ccc(Cl)cc4)cc3)CC2)ccc2c1CCCC2)C(N)=O was 1090

Tested system Plasmodium falciparum; XC50 recorded for CC(=O)c1ccc(NC(=O)C2c3ccccc3C(=O)N(CC(C)C)C2c2cccs2)cc1 (stereo not given) was 1320

Tested system Plasmodium falciparum; XC50 recorded for Clc1ccc(CNCC2CCN(CC3CCCCC3)CC2)cc1Cl was 1000

====

# reported XC50; entries follow
tested on: Plasmodium falciparum; test: GSK_TCMDC: Inhibition of Plasmodium falciparum 3D7 in whole erythrocytes, using parasite LDH activity as an index of growth.; type: functional, organism-based; settings: Plasmodium falciparum, 3D7
Enter your answer as a number in nM; do not include the unit.

Solved entries (count: 5):
compound	assayed-system	unit-tag	readout-number
O=C(NC12CC3CC(CC(C3)C1)C2)C(=O)c1c[nH]c2ccccc12	Plasmodium falciparum	nM	232
Cc1cccc2nc(-c3ccc(-c4cccc(CNCCc5ccncc5)c4)s3)[nH]c12	Plasmodium falciparum	nM	138
CCCCCCN(CCCCCC)CC(O)c1cc(-c2ccc(Cl)cc2)nc2c(C)cc(C)cc12 (stereo not given)	Plasmodium falciparum	nM	67.3
CC(C)(C)c1ccc(C(=O)Nc2ccc3nc4c(c(N)c3c2)CCCC4)cc1	Plasmodium falciparum	nM	175
COc1ccc(-c2nonc2NC(=O)c2cccc(Cl)c2)cc1OC	Plasmodium falciparum	nM	876

Please fill in: XC50 reported for O=C(Nc1ccc(F)c(Cl)c1)NC1CCN(c2ccnc3cc(Cl)ccc23)C1 (stereo not given) = 215

Please fill in: XC50 reported for CN1CCN(CC(=O)Nc2cccc(-c3cccc(-c4nc5cc(F)ccc5[nH]4)c3)c2)CC1 = 741

Please fill in: XC50 reported for Clc1ccc(OC2CCC(Cn3ccnc3)(c3ccc(Cl)cc3Cl)CC2)c(Cl)c1 (stereo not given) = 800

Please fill in: XC50 reported for O=C(CCc1cccc(O)c1)NCC(NCCCNc1cc(=O)c2ccccc2[nH]1)c1cc(Br)cc(Br)c1 (stereo not given) = 1170

Please fill in: XC50 reported for Nc1ccnc(N2CCC(CCOc3ccnc4cc(Cl)ccc34)CC2)c1 = 1160

Hey, just so you know, these numbers are from ChEMBL document CHEMBL1157539.
